Please respond with reported hNE/hPr3 selectivity for every item in the list.
Target: human proteinase 3 (Homo sapiens, UniProt P24158)
Construct: purchased Elastin Products Company, USA
Sequence (P24158 28-248): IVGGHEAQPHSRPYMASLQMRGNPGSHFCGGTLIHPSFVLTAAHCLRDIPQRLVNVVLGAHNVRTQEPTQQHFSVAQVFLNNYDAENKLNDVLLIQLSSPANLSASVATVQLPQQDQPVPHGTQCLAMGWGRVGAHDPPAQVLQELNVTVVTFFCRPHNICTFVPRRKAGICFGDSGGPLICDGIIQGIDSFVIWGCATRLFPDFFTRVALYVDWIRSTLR
Assay: Inhibition of human proteinase 3 (Boc-Ala-Ala-Nva-SBzl)
Assay type: biochemical
Conditions: ratio of hPr3 IC50 to hNE IC50
Method: 2.4. Inhibition of Human Proteinase 3 The inactivation of human proteinase 3 (Elastin Products Company, USA) by the peptides of the invention using synthetic tripeptidic substrate Boc-Ala-Ala-Nva-SBzl (Elastin Products Company, USA) was determined as follows: The above substrate (1 mM), 4,4′-dithiodipyridine (250 μM) and human proteinase 3 (10 nM) were incubated at 37° C. with serial dilutions of the peptides (0.5% DMSO final) in assay buffer (50 mM Tris, pH7.4, 150 mM NaCl, 0.01% Tween20). […]
Non-standard residues stand in square brackets, D forms with d. Residues, ends and D or L forms follow the SMILES beside them. Gly(octyl) = CCCCCCCC[C@H](N)C(=O)O; AllylGly = C=CC[C@H](N)C(=O)O; Nle = CCCC[C@H](N)C(=O)O
One number for each entry.

Worked examples, 3 molecules total:
CCCC[C@@H]1NC(=O)[C@H](CCCNC(=N)N)NC(=O)[C@@H]2CCCN2C(=O)[C@H]2CCCN2C(=O)[C@H](Cc2ccc(O)cc2)NC(=O)[C@H](CCCCN)NC(=O)[C@H](CCC(N)=O)NC(=O)[C@@H]2CCCN2C(=O)[C@@H]2CCCN2C(=O)[C@H]([C@@H](C)CC)NC(=O)[C@H](CO)NC(=O)[C@H](C)NC(=O)[C@H]([C@@H](C)O)NC1=O [Example 6] (cyclo(R[Nle]TASIPPQKY[dP]P)) : 153
CCCCCCCC[C@@H]1NC(=O)[C@@H]2CCCN2C(=O)[C@H]2CCCN2C(=O)[C@H](CO)NC(=O)[C@H](CCCCN)NC(=O)[C@H](CCC(N)=O)NC(=O)[C@@H]2CCCN2C(=O)[C@@H]2CCCN2C(=O)[C@H]([C@@H](C)CC)NC(=O)[C@H](CO)NC(=O)[C@H](C)NC(=O)[C@H]([C@@H](C)O)NC(=O)[C@H](CCC(=O)O)NC1=O [Example 3] (cyclo([Gly(octyl)]ETASIPPQKS[dP]P)) : 262
C=CC[C@@H]1NC(=O)[C@H]([C@@H](C)O)NC(=O)[C@H](CCC(=O)O)NC(=O)[C@H](CCCNC(=N)N)NC(=O)[C@@H]2CCCN2C(=O)[C@H]2CCCN2C(=O)[C@H]([C@@H](C)O)NC(=O)[C@H](CCCCN)NC(=O)[C@H](CCC(N)=O)NC(=O)[C@@H]2CCCN2C(=O)[C@@H]2CCCN2C(=O)[C@H]([C@@H](C)CC)NC(=O)[C@H](CO)NC1=O [Example 7] (cyclo(RET[AllylGly]SIPPQKT[dP]P)) : 5383

# hNE/hPr3 selectivity (molecule: CC[C@H](C)[C@@H]1NC(=O)[C@H](CO)NC(=O)[C@H](C)NC(=O)[C@H]([C@@H](C)O)NC(=O)[C@H](C(C)C)NC(=O)[C@H](CCCNC(=N)N)NC(=O)[C@@H]2CCCN2C(=O)[C@H]2CCCN2C(=O)[C@H](Cc2ccc(O)cc2)NC(=O)[C@H](CCCCN)NC(=O)[C@H](CCC(N)=O)NC(=O)[C@@H]2CCCN2C(=O)[C@@H]2CCCN2C1=O [Example 18] (cyclo(RVTASIPPQKY[dP]P)) ) is 261

Values from patent US10723765B2
